Target: GST-Bc1-2 (Homo sapiens, UniProt P10415)
Sequence (P10415 whole entry): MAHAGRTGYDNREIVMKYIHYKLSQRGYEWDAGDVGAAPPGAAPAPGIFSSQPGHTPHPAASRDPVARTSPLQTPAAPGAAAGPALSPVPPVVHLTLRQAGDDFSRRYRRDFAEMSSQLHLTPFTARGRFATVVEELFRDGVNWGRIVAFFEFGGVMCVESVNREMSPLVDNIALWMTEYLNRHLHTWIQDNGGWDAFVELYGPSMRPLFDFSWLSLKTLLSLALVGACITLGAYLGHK
Assay: Time Resolved-Fluorescence Resonance Energy Transfer (TR-FRET) Bcl-2 binding assay with F-Bak peptide probe
Settings: GST-Bcl-2 1 nM, F-Bak probe 100 nM, Tb-anti-GST 1 nM; '<' = below limit of detection; read-out: TR-FRET Bcl-2 Binding Ki
Attribute measured: Ki (nM)
Give the value in nM but do not write nM after it.

[
  {
    "Molecule": "O=C(NS(=O)(=O)c1ccc(NCC2CCOCC2)c([N+](=O)[O-])c1)c1ccc(N2CCN(Cc3ccccc3-c3ccc(Cl)cc3)CC2)cc1Oc1cnc2[nH]ccc2c1",
    "Ki [nM]": 0.225
  }
]

With those in mind, consider the next compound.
Identify Ki associated with the compound "CC1(C)CCC(CN2CCN(c3ccc(C(=O)NS(=O)(=O)c4cnc(NCC5(F)CCOCC5)c(Cl)c4)c(Oc4cnc5[nH]ccc5c4)c3)CC2)=C(c2ccc(Cl)cc2)C1"
0.057

###

Molecular target: GST-Bc1-2 (Homo sapiens)
Assay: Time Resolved-Fluorescence Resonance Energy Transfer (TR-FRET) Bcl-2 binding assay with F-Bak peptide probe
Conditions: GST-Bcl-2 1 nM, F-Bak probe 100 nM, Tb-anti-GST 1 nM; '<' = below limit of detection; read-out: TR-FRET Bcl-2 Binding Ki
In this section we review reported Ki values for a set of molecules.
Output spec: scalar in pM, unitless text.

# return Ki of "O=C(NS(=O)(=O)c1ccc(NCCCN2CCOCC2)c([N+](=O)[O-])c1)c1ccc(N2CCN(Cc3ccccc3-c3ccc(Cl)cc3)CC2)cc1Oc1ccc2[nH]ccc2c1" (system: GST-Bc1-2 (Homo sapiens))
672

With GST-Bc1-2 (Homo sapiens) as the test system, provide measured Ki for this molecule: "CC1(C)CCC(CN2CCN(c3ccc(C(=O)NS(=O)(=O)c4cc(F)c(F)c(OCC5(F)CCOCC5)c4)c(Oc4cnc5[nH]ccc5c4)c3)CC2)=C(c2ccc(Cl)cc2)C1"
1100

###

Molecular target: GST-Bc1-2 (Homo sapiens, UniProt P10415)
Assay: Time Resolved-Fluorescence Resonance Energy Transfer (TR-FRET) Bcl-2 binding assay with F-Bak peptide probe
Settings: Table 5, direct comparison Z=N vs Z=C analogs; read-out: Bcl-2 FRET ki
Attribute measured: Ki

[
  {
    "Molecule": "CC1(C)CCC(CN2CCN(c3ccc(C(=O)NS(=O)(=O)c4ccc(NC[C@@H]5CCCOC5)c([N+](=O)[O-])c4)c(Oc4cnc5[nH]ccc5c4)c3)CC2)=C(c2ccc(Cl)cc2)C1",
    "Recorded value": "0.016 nM"
  },
  {
    "Molecule": "CC1(C)CC(c2ccc(Cl)cc2)=C(CN2CCN(c3ccc(C(=O)NS(=O)(=O)c4ccc(NCC5CCOCC5)c([N+](=O)[O-])c4)c(Oc4ccc5[nH]ccc5c4)c3)CC2)CO1",
    "Recorded value": "0.083 nM"
  },
  {
    "Molecule": "COCCNc1ccc(S(=O)(=O)NC(=O)c2ccc(N3CCN(CC4=C(c5ccc(Cl)cc5)CC(C)(C)CC4)CC3)cc2Oc2cnc3[nH]ccc3c2)cc1S(=O)(=O)C(F)(F)F",
    "Recorded value": "0.219 nM"
  }
]

Dear colleague, please send me the reported Ki for "O=C(NS(=O)(=O)c1ccc(NCC2CCOCC2)c([N+](=O)[O-])c1)c1ccc(N2CCN(Cc3ccccc3-c3ccc(Cl)cc3)CC2)cc1Oc1cnc2[nH]ccc2c1" when you can.
0.225 nM

Identify measured Ki corresponding to "O=C(NS(=O)(=O)c1ccc(NCCCN2CCOCC2)c([N+](=O)[O-])c1)c1ccc(N2CCN(Cc3ccccc3-c3ccc(Cl)cc3)CC2)cc1Oc1cnc2[nH]ccc2c1"
< 0.01 nM

Give recorded Ki. "CC1(C)CCC(CN2CCN(c3ccc(C(=O)NS(=O)(=O)c4ccc(NCC5CCOCC5)c([N+](=O)[O-])c4)c(Oc4ccc5[nH]ccc5c4)c3)CC2)=C(c2ccc(Cl)cc2)C1"
0.017 nM

Query Ki for "CC1(C)CCC(CN2CCN(c3ccc(C(=O)NS(=O)(=O)c4ccc(N[C@H]5CC[C@H](N6CCOCC6)CC5)c([N+](=O)[O-])c4)c(Oc4ccc5[nH]ccc5c4)c3)CC2)=C(c2ccc(Cl)cc2)C1"
0.226 nM

Supply measured Ki of "CC1(C)CCC(CN2CCN(c3ccc(C(=O)NS(=O)(=O)c4ccc(NC5CCN(C6CCOCC6)CC5)c([N+](=O)[O-])c4)c(Oc4cnc5[nH]ccc5c4)c3)CC2)=C(c2ccc(Cl)cc2)C1" in your reply.
0.013 nM

Return Ki (reported value) for this compound: "CC1(C)CCC(CN2CCN(c3ccc(C(=O)NS(=O)(=O)c4ccc(NCC5CCOCC5)c(S(=O)(=O)C(F)(F)F)c4)c(Oc4cnc5[nH]ccc5c4)c3)CC2)=C(c2ccc(Cl)cc2)C1"
0.09 nM

Output measured Ki for this item: "COCCNc1ccc(S(=O)(=O)NC(=O)c2ccc(N3CCN(CC4=C(c5ccc(Cl)cc5)CC(C)(C)CC4)CC3)cc2Oc2ccc3[nH]ccc3c2)cc1[N+](=O)[O-]"
0.181 nM
